# Test system: NUGC4 cells (wild-type p53)
# Assay overview: Cell viability assay, NUGC4
# Type: cell-based
# Setup conditions: Homo sapiens, NUGC-4; 72 h, p53 WT
Value kind: pIC50
Recall that pIC50 is obtained by taking minus log10 of the concentration measured in molar.

1. CCN(CC)C1CCN(Cc2cc(C#CCNc3ccccc3)cc(I)c2O)CC1    5.05

Here's the next entry for you.
Consider the compound shown here: CCn1c2ccccc2c2cc(CNC)ccc21 What is its recorded pIC50?
5.05

----------
Reported pIC50 values for the following compounds.
# Test system: BXPC-3 cells (p53-Y220C)
# Assay overview: Cell viability assay, BXPC3
# Setup conditions: Homo sapiens, BXPC-3, 72 h, read-out: IC50 BXPC3
Recall that pIC50 is obtained by taking minus log10 of the concentration measured in molar.

1) CCN(CC)C1CCN(Cc2cc(C#CCNc3ccccc3)cc(I)c2O)CC1 [Compound 3]    4.96
2) Cn1cc(-c2ccccc2)c(-n2cccc2)n1 [Compound 2]    4.24
3) CCn1c2ccccc2c2cc(CNC)ccc21 [Compound 1]    4.37

Here's the next entry for you.
Consider the compound shown here: CCNC(=O)c1c(O)c(I)c(-n2cccc2)c2sc(N(CC)CC)nc12 [Compound 72] What is its recorded pIC50?
4.74

----------
# Test system: NUGC3 cells (p53-Y220C)
# Assay overview: Cell viability assay (CellTiter-Fluor / CellTiter-Glo 2.0), NUGC3
# Assay type: cell-based, human
# Setup conditions: Homo sapiens, NUGC-3; 72 h, Y220C cell line
Value kind: IC50
Lab note: write values as number then unit, every time.

Field: example entries. Status: answers known.
1) CCn1c2ccccc2c2cc(CNC)ccc21 [Compound 1]    14 µM
2) Cn1cc(-c2ccccc2)c(-n2cccc2)n1 [Compound 2]    43 µM
3) CCNC(=O)c1c(O)c(I)c(-n2cccc2)c2sc(N(CC)CC)nc12 [Compound 72]    10 µM
4) CCN(CC)C1CCN(Cc2cc(C#CCNc3ccccc3)cc(I)c2O)CC1 [Compound 3]    6 µM

Here's the next entry for you.
Consider the compound shown here: CCN(CC)c1nc2c(C(=O)O)c(O)c(I)c(-n3cccc3)c2s1 [Compound 70] What is its recorded IC50?
90 µM

----------
# Target or test system: stabilized p53-Y220C DBD (residues 94–312) (Homo sapiens, UniProt P04637, M133L/N239Y/N268D/V203A/Y220C)
# Construct: Stabilized p53-Y220C DBD (residues 94–312) was expressed and purified; 6xHis / lipoyl domain / TEV protease cleavage site (N, cleaved yes)
# Assay overview: Isothermal titration calorimetry (ITC)
# Setup conditions: ITC
Value kind: Kd (µM)
Kindly answer with a numeric value in µM, unit omitted.

1) O=C(O)c1cc(OCCC(F)(F)F)c(-n2cccc2)c(I)c1O    108
2) COc1ccc(-c2cc(C(=O)O)c(O)c(I)c2-n2cccc2)cc1    122
3) O=C(O)c1cc(OCCc2ccccc2)c(-n2cccc2)c(I)c1O    116

Here's the next entry for you.
Consider the molecule shown here: O=C(O)c1cc(-c2ccc(F)cc2)c(-n2cccc2)c(I)c1O What is its recorded Kd?
113

----------
Reported ΔTm at 250 µM values for the following molecules.
# Target or test system: stabilized p53-Y220C DBD (residues 94–312) (Homo sapiens, UniProt P04637, M133L/N239Y/N268D/V203A/Y220C)
# Construct: Stabilized p53-Y220C DBD (residues 94–312) was expressed and purified; 6xHis / lipoyl domain / TEV protease cleavage site (N, cleaved yes); made in house; host or cells: E. coli C41
# Assay overview: Differential scanning fluorimetry (DSF), thermal stabilization of Y220C
# Format: binding
# Setup conditions: 8 μM protein, 10 × SYPRO Orange, 250 μM ligand
Kindly answer with a numeric value in °C, unit omitted.

Field: example entries. Status: answers known.
1. O=C(O)c1cc(OCCc2ccccc2)c(-n2cccc2)c(I)c1O    1
2. CN(C)CCNC(=O)c1cc(I)c(-n2cccc2)c(I)c1O    1.3
3. CCOc1cc(C(=O)O)c(O)c(I)c1-n1cccc1    1.3
4. CNC(=O)c1cc(I)c(-n2cccc2)c(I)c1O    0.9

Here's the next entry for you.
Consider the molecule shown here: CCCCOc1cc(C(=O)O)c(O)c(I)c1-n1cccc1 What is its recorded ΔTm at 250 µM?
1.4

----------
Reported IC50 values for the following compounds.
# System: NUGC4 cells (wild-type p53)
# Assay overview: Cell viability assay, NUGC4
# Type: cell-based
# Setup conditions: Homo sapiens, NUGC-4; 72 h, p53 WT

1) CCNC(=O)c1c(O)c(I)c(-n2cccc2)c2sc(N(CC)CC)nc12 [Compound 72]    > 120 µM

Consider the compound shown here: Cn1cc(-c2ccccc2)c(-n2cccc2)n1 [Compound 2] What is its recorded IC50?
> 120 µM

Consider the compound shown here: CCN(CC)c1nc2c(C(=O)O)c(O)c(I)c(-n3cccc3)c2s1 [Compound 70] What is its recorded IC50?
~120 µM
